tested on: SK-OV-3 ovarian; assay: NCI-60 one-dose screen, 48 h; conditions: 10 µM
About 83,000 compounds went through this panel and 20% of them were active in at least one assay; those are over-represented in the sample as a whole. Active and inactive are the calls of the source. Rule for the calls: active = growth percent below 10; inactive = the rest.
Reply using exactly one outcome from class 1 for active, class 0 for inactive

Check out these entries, answers already filled in.
C#C[C@]1(O)CC[C@H]2[C@@H]3CC[C@H]4CC(F)(F)CC[C@]4(C)[C@H]3CC[C@@]21C
class 0
O=C(Nc1ccc(OCc2nnc(-c3ccccc3)o2)c(F)c1)Nc1ccc(Cl)c(Cl)c1
class 0
CCCCCCCCCCCCCCCCCBr
class 0
CCc1nn2c(-c3cc(OC)c(OC)c(OC)c3)c(-c3cc(OC)c(OC)c(OC)c3)nc2s1
class 0
CCCCCCCCCCCCCC[n+]1ccccc1
class 1

Which outcome did this test record for the compound Cc1ccc2nc3[nH]c(=O)[nH]c(=O)c3c(N)c2c1 ?
class 0

Now the compound Cc1cccc2c(Nc3ccc(NS(C)(=O)=O)cc3)c3ccc([N+](=O)[O-])cc3nc12
class 0

Now the compound C=CCNCCCN1C(=O)c2ccc3c4c(ccc(c24)C1=O)C(=O)N(CCCNCC=C)C3=O
class 1

Now the compound CC(C)C(C)C(N)C(=O)O (configuration not stated)
class 0

Now the compound COc1cccc(-c2nnc(COc3ccc(-c4nc5ccc(C)cc5[nH]4)cc3OC)o2)c1
class 0

Now the compound C=CCN1C(=O)/C(=C\c2ccc3c(c2)CCC3)SC1=S
class 0

Now the compound COc1ccc(-c2nnc(COc3ccc(NC(=O)Nc4cccc(C(F)(F)F)c4)cc3F)o2)cc1
class 0

Where do the numbers come from? From PubChem BioAssay (NCI).
